- target-or-test-system: Human GLP-1 receptor (Homo sapiens)
- Construct: The full-length cDNA was cloned in pcDNA3.1(+); expressed in transfected cells
- Format: cell-based
- experimental-context: 10 μM test compound
- Description: The novel peptidomimetics were screened for Human GLP-1 receptor (HGLP-1 R) agonist activity (in vitro), using the cAMP cell-based assay, in stably transfected CHO/human GLP1R cells. […] The trypsin was inactivated using Ham's F12 medium containing 10% NBCS and the cells were suspended in 2 ml of complete medium. […] Data is calculated as percent of control (Vehicle: water) and expressed as Mean±SD.
# Human GLP-1 R activity (cAMP release), % activity with respect to control values compiled below
Response body: numeric value in %, unit text excluded.

compound="CCc1cc(OC)ccc1-c1ccc(CC(NC(=O)[C@H](CC(=O)O)NC(=O)[C@H](CO)NC(=O)[C@@H](NC(=O)[C@H](Cc2ccccc2)NC(=O)[C@@H](NC(=O)CNC(=O)[C@H](CCC(N)=O)NC(=O)C2(NC(=O)[C@@H](N)Cc3c[nH]cn3)CC2)[C@@H](C)O)[C@@H](C)O)C(=O)NC(Cc2ccc(-c3ccccc3C(F)(F)F)cc2)C(N)=O)cc1 (single isomer, unassigned)" unit_spec=% experimental_value=99

Endpoint output: Human GLP-1 R activity (cAMP release), % activity with respect to control of CCc1cc(OC)ccc1-c1ccc(CC(NC(=O)[C@H](CC(=O)O)NC(=O)[C@H](CO)NC(=O)[C@@H](NC(=O)C(C)(Cc2ccccc2F)NC(=O)[C@@H](NC(=O)CNC(=O)[C@H](CCC(N)=O)NC(=O)C2(NC(=O)[C@@H](N)Cc3c[nH]cn3)CC2)[C@@H](C)O)[C@@H](C)O)C(=O)NC(Cc2ccc(-c3ccccc3C)cc2)C(N)=O)cc1 (single isomer, unassigned) . Value? 99

====

- target-or-test-system: Human GLP-1 receptor (Homo sapiens, UniProt P43220)
- Construct: The full-length cDNA was cloned in pcDNA3.1(+); expressed in transfected cells
- Sequence (P43220 24-463): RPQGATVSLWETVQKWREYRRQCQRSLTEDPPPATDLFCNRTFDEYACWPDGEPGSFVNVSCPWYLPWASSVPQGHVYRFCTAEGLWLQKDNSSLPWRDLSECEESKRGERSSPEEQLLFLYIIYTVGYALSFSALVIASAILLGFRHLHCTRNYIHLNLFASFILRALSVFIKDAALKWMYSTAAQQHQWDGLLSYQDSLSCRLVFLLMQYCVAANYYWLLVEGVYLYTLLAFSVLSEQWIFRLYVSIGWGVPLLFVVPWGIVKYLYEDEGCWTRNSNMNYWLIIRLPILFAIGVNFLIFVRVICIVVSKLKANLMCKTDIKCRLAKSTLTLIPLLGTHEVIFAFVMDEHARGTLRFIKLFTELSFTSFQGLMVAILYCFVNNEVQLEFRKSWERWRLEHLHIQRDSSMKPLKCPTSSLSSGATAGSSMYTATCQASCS
- Type: cell-based
- experimental-context: 10 nM test compound
measurement-name: Human GLP-1 R activity (cAMP release), % activity with respect to control (%)
Reply numerically in %, unit not repeated.

Solved cases (2 shown):
compound="CCc1cc(OC)ccc1-c1ccc(CC(NC(=O)[C@H](CC(=O)O)NC(=O)[C@H](CO)NC(=O)[C@@H](NC(=O)C(C)(Cc2ccccc2F)NC(=O)[C@@H](NC(=O)CNC(=O)[C@H](CCC(N)=O)NC(=O)C(C)(C)NC(=O)[C@@H](N)Cc2c[nH]cn2)[C@@H](C)O)[C@@H](C)O)C(=O)NC(Cc2ccc(-c3ccccc3C(F)(F)F)cc2)C(N)=O)cc1 (single isomer, unassigned)" experimental_value=99
compound="CCc1cc(OC)ccc1-c1ccc(CC(NC(=O)[C@H](CC(=O)O)NC(=O)[C@H](CO)NC(=O)[C@@H](NC(=O)C(C)(Cc2ccccc2F)NC(=O)[C@@H](NC(=O)CNC(=O)[C@H](CCC(N)=O)NC(=O)C2(NC(=O)[C@@H](N)Cc3c[nH]cn3)CC2)[C@@H](C)O)[C@@H](C)O)C(=O)NC(Cc2ccc(-c3ccccc3F)cc2)C(N)=O)cc1 (single isomer, unassigned)" experimental_value=99

Moving on to the next compound.
For the compound CCc1cc(OC)ccc1-c1ccc(CC(NC(=O)[C@H](CC(=O)O)NC(=O)[C@H](CO)NC(=O)[C@@H](NC(=O)[C@H](Cc2ccccc2)NC(=O)[C@@H](NC(=O)CNC(=O)[C@H](CCC(N)=O)NC(=O)C(C)(C)NC(=O)[C@@H](N)Cc2c[nH]cn2)[C@@H](C)O)[C@@H](C)O)C(=O)NC(Cc2ccc(-c3ccccc3C(F)(F)F)cc2)C(N)=O)cc1 (single isomer, unassigned) , what Human GLP-1 R activity (cAMP release), % activity with respect to control is on record? 98
